Each entry below lists one item and its recorded pIC50 value.
- TGT: Xanthine dehydrogenase/oxidase (Bos taurus)
- Sequence (P80457 whole entry): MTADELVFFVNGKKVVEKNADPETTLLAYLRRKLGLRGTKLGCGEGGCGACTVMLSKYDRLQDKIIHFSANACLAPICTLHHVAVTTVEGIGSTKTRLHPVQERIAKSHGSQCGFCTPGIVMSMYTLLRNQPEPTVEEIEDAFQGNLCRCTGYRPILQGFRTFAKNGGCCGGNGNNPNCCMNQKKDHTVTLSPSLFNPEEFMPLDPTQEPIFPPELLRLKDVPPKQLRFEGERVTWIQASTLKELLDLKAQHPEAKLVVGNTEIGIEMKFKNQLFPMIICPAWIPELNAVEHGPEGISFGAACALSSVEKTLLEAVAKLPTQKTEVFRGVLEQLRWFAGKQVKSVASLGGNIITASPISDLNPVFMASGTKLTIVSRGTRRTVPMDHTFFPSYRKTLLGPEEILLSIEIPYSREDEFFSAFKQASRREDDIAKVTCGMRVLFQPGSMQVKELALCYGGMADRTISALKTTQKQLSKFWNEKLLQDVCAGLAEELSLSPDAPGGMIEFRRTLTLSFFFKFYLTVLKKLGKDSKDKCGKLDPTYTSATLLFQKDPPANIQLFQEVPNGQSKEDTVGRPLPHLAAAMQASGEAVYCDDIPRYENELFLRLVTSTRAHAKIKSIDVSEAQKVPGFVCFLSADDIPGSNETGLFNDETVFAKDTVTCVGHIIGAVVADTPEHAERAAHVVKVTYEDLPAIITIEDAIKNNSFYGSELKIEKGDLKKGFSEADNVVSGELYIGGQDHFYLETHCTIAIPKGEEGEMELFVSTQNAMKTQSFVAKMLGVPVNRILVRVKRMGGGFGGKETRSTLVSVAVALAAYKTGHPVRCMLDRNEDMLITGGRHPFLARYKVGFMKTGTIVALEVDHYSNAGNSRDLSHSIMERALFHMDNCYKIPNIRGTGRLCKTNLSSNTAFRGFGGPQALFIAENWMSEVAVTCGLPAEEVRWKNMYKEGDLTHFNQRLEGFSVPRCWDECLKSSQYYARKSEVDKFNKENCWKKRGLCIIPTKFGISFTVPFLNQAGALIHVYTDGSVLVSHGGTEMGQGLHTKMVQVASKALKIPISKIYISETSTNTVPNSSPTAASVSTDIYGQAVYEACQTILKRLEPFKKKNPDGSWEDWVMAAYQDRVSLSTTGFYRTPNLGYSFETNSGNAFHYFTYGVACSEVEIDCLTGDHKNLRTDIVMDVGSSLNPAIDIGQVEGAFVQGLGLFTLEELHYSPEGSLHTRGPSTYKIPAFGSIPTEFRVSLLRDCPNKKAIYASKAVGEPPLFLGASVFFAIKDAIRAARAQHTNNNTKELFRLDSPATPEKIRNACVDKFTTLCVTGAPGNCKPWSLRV
Bear in mind: pIC50 is minus log10 of a mol/L concentration; give just that figure.

Here's what some known entries look like.
- COMPOUND: "COC(=O)C1=COC(O)[C@@H]2C(CO)=CC[C@H]12 (stereo partly drawn)"
  EXPERIMENTAL READOUT: "pIC50"
  RECORDED MEASUREMENT: 4.03
- COMPOUND: "CC(=O)OCC1=CC[C@@H]2C(C(=O)Oc3cncc4ccccc34)=CO[C@@H](O[C@@H]3O[C@H](COC(C)=O)[C@@H](OC(C)=O)[C@H](OC(C)=O)[C@H]3OC(C)=O)[C@H]12"
  EXPERIMENTAL READOUT: "pIC50"
  RECORDED MEASUREMENT: 4.51

For the next question, use this compound.
Enquiry: Notebook: pull reported pIC50 for Xanthine dehydrogenase/oxidase (Bos taurus), entry CC(=O)OCC1=CC[C@@H]2C(C(=O)Nc3nn[nH]n3)=CO[C@@H](O[C@@H]3O[C@H](COC(C)=O)[C@@H](OC(C)=O)[C@H](OC(C)=O)[C@H]3OC(C)=O)[C@H]12
Return: 4.19

These measurements were taken from ChEMBL document CHEMBL5120838.
